# protocol_summary: protein stability index of a GFP-peptide fusion (yeast GPS) (PSI 1-4); higher = more stable; sorted into four equal gates, so the index is relative within each strain
# assay_conditions: pdr5∆
Collected protein stability index values appear next to each entry.
Format: numeric value only, no unit, no commentary.

Consider the worked cases shown below.
Need protein stability index, item SNININVNNNNIGQQQV [SWI1] 3.01

Another sequence: KLEGSENSEPPALESSP [SNF2] 2.97

Now the sequence EGAEPGPPYTTDEHLIF [ISW2] 2.99

Now this one: LKWIDTASKFGKGRFQT [RPL3] 3.06

Let us move to another entry and its protein stability index.
// query protein stability index value for entry EINETEFIRCGCLIKNL [RMP1] 2.98

* * *

# protocol_summary: protein stability index of a GFP-peptide fusion (yeast GPS) (PSI 1-4); higher = more stable; sorted into four equal gates, so the index is relative within each strain
# assay_conditions: pdr5∆
Item-by-item account of protein stability index
Format: numeric value only, no unit, no commentary.

Consider the following illustrative entries.
Suppose we examine the sequence IYDSEDPQQVFDERIKF [RPN3] ; what protein stability index value has been reported? 3.09

And what about the sequence VQNLRSWETKLKQNILE [CSN9] ? 2.04

EESISKFPDMGSLWVEF [RPB5] , same question. 2.98

How about KYQKALHYLKKFKHIDD [SRP72] ? 2.96

// query: SVARVEDHDVHSNESSN [IRR1] 2.99

Now consider VKARHGGCDYIFSLLTG [CYT1] . 3.02

Request: SLNTKKNEKLILEESLN [SMC3] 2

Moving on to the next sequence: YYNEEGIHILLYSGLII [RPC82] 2.04

***
Tell me the measured protein stability index of FLLRRVKADVEKSLLPK [ISW2] , please. 3.05

Next sequence up: SYSPTSPSYSPTSPNYS [RPO21] 2.96

# repeat for KRPRSRTLTAVHDKVLE [RPS7B] 2.99

* * *

# protocol_summary: protein stability index of a GFP-peptide fusion (yeast GPS) (PSI 1-4); higher = more stable; sorted into four equal gates, so the index is relative within each strain
# assay_conditions: doa10∆
Given measured protein stability index, output yes (1) if it is greater than or equal to 2 and no (0) if not.

See these solved cases before continuing.
Is protein stability index at least 2? Consider AKEVKVLYHTSGAITFV [PRP8] yes (1)

What do we get for LFNESFIMASVGKYDKA [SRP72] ? yes (1)

Same lookup for WPQSKNCEYEDPPNEGD [RPB3] , please. yes (1)

Next record, please: RSRMLPTITLDDVYRPA [SNF5] yes (1)

Lookup GQAIVVHPDYLYGAITE [FAS2] yes (1)

Next up: ISIYNMLPPKSVKFTHI [SSN2] no (0)

Further cases:
Does the sequence CASIPIAIIKDTSDIIV [RRP46] have recorded protein stability index that is 2 or more? no (0)

Repeat for the following sequence: SNININVNNNNIGQQQV [SWI1] yes (1)

* * *

# protocol_summary: protein stability index of a GFP-peptide fusion (yeast GPS) (PSI 1-4); higher = more stable; sorted into four equal gates, so the index is relative within each strain
# assay_conditions: doa10∆
This listing pairs sequences with measured protein stability index.
Could you respond with only the numeric value?

I would be grateful if you could share the reported protein stability index for VPPINCIFNFLQQQTPV [SME1] . 1.34

Entry KDNAIYNGFIDIFSNLS [YCS4] please 2.85

Another sequence to look at: TIEDIAVAITRASKLKI [RPO31] 1.63

# iterate: IQRETLLPTNNGQPLNQ [GRR1] 2.53

Can you handle AKRAQFRKKRKFELGRQ [RPS8A] next? 3.24

// query: SNLKISLVKYPELLDSL [SWI1] 2.76

Others:
Which measured protein stability index value corresponds to QANPTEESISKFPDMGS [RPB5] ? 3.23

Another sequence to look at: CDVFWVQKDTAIIRLHP [POP1] 2.29

What about HLNFPNVKFLRIFISNV [SNF12] ? 1.79
